TARGET SYSTEM: 14-3-3ε (Homo sapiens)
Construct: purchased Novus Biologicals
Sequence (P62258 1-255): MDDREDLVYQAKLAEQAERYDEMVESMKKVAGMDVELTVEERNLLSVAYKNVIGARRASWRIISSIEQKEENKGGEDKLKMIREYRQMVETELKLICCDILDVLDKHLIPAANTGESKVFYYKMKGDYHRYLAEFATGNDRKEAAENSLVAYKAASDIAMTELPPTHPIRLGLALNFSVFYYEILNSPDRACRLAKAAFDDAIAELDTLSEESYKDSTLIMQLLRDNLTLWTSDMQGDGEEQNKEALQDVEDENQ
TEST METHOD NOTES: Surface plasmon resonance (SPR), steady-state affinity on immobilized His6-14-3-3ε
Assay type: binding
Where a SMILES comes first, the peptide text is derived from it. [ ]: non-standard residue; d: D form. pS = N[C@@H](COP(=O)(O)O)C(=O)O
// ΔG ± SD (free energy of binding derived from KD) lookup, one value per entry
Lab book: enter the figure in kcal/mol, no units written.

| COMPOUND | TARGET SYSTEM | OBSERVED |
| --- | --- | --- |
| CC(=O)N[C@@H](CCC(N)=O)C(=O)N[C@@H](CCCNC(=N)N)C(=O)N[C@@H](CCC(N)=O)C(=O)N[C@@H](CC(N)=O)C(=O)N[C@@H](COP(=O)(O)O)C(=O)N[C@@H](Cc1ccccc1)C(=O)N1CCC[C@H]1C(=O)N[C@@H](C)C(=O)N[C@@H](CCCNC(=N)N)C(N)=O [[Phe^179]pS(174–182)] (Ac-QRQN[pS]FPAR-NH2) | 14-3-3ε (Homo sapiens) | -5.772 |

Kindly note the recorded ΔG ± SD (free energy of binding derived from KD) for CC(=O)N[C@@H](CCC(N)=O)C(=O)N[C@@H](CCCNC(=N)N)C(=O)N[C@@H](CCC(N)=O)C(=O)N[C@@H](CC(N)=O)C(=O)N[C@@H](COP(=O)(O)O)C(=O)N[C@@H](C)C(=O)N1CCC[C@H]1C(=O)N[C@@H](C)C(=O)N[C@@H](CCCNC(=N)N)C(N)=O [pS(174–182)] (Ac-QRQN[pS]APAR-NH2) , which is -6.874

Kindly note the recorded ΔG ± SD (free energy of binding derived from KD) for CC(=O)N[C@@H](CCC(N)=O)C(=O)N[C@@H](CCCNC(=N)N)C(=O)N[C@@H](Cc1ccc(O)cc1)C(=O)N[C@@H](CC(N)=O)C(=O)N[C@@H](COP(=O)(O)O)C(=O)N[C@@H](C)C(=O)N1CCC[C@H]1C(=O)N[C@@H](C)C(=O)N[C@@H](CCCNC(=N)N)C(N)=O [[Tyr^176]pS(174–182)] (Ac-QRYN[pS]APAR-NH2) , which is -8.786

Kindly note the recorded ΔG ± SD (free energy of binding derived from KD) for CC(=O)N[C@@H](CCC(N)=O)C(=O)N[C@@H](CCCNC(=N)N)C(=O)N[C@@H](CCC(N)=O)C(=O)N[C@@H](CC(N)=O)C(=O)N[C@@H](COP(=O)(O)O)C(=O)N[C@@H](Cc1ccc(O)cc1)C(=O)N1CCC[C@H]1C(=O)N[C@@H](C)C(=O)N[C@@H](CCCNC(=N)N)C(N)=O [[Tyr^179]pS(174–182)] (Ac-QRQN[pS]YPAR-NH2) , which is -5.37

Kindly note the recorded ΔG ± SD (free energy of binding derived from KD) for CSCC[C@H](NC(=O)[C@H](CCCNC(=N)N)NC(=O)[C@H](C)NC(=O)[C@@H]1CCCN1C(=O)[C@H](C)NC(=O)[C@H](COP(=O)(O)O)NC(=O)[C@H](CC(N)=O)NC(=O)[C@H](CCC(N)=O)NC(=O)[C@H](CCCNC(=N)N)NC(=O)[C@H](CCC(N)=O)NC(=O)[C@@H](NC(C)=O)[C@@H](C)O)C(=O)N[C@@H](CC(C)C)C(=O)N[C@@H](CO)C(=O)N[C@@H](CO)C(N)=O [pS] (Ac-TQRQN[pS]APARMLSS-NH2) , which is -9.073

Kindly note the recorded ΔG ± SD (free energy of binding derived from KD) for CC(=O)N[C@@H](CCC(N)=O)C(=O)N[C@@H](CCCNC(=N)N)C(=O)N[C@@H](CCC(N)=O)C(=O)N[C@@H](CCCCN)C(=O)N[C@@H](COP(=O)(O)O)C(=O)N[C@@H](C)C(=O)N1CCC[C@H]1C(=O)N[C@@H](C)C(=O)N[C@@H](CCCNC(=N)N)C(N)=O [[Lys^177]pS(174–182)] (Ac-QRQK[pS]APAR-NH2) , which is -7.199

---

TARGET SYSTEM: 14-3-3ε (Homo sapiens)
Construct: purchased Novus Biologicals
TEST METHOD NOTES: Differential scanning fluorimetry (DSF), melting temperature shift of 14-3-3ε
Format: binding
CONDITION INFO: 30 μM peptide, 2 µM 14-3-3ε, SYPRO-orange, 20 mM TRIS, 150 mM NaCl, 1 mM DTT, pH 7.4, average ± SD of n ≥ 5
Description: The binding of the peptides to 14-3-3ε was further assessed using differential scanning fluorometry (DSF) and surface plasmon resonance (SPR) measurements. […] To quantitatively determine the affinity of the peptides for 14-3-3ε protein using SPR, His-tagged protein was immobilized on a nitrilotriacetic acid (Ni-NTA) sensor chip, and then binding of the peptides analogs to the protein was determined. […]
Where a SMILES comes first, the peptide text is derived from it. [ ]: non-standard residue; d: D form. pS = N[C@@H](COP(=O)(O)O)C(=O)O
// ΔTm (melting temperature shift of 14-3-3ε) lookup, one value per entry
Lab book: enter the figure in °C, no units written.

| MOLECULE | OBSERVED |
| --- | --- |
| CC(=O)N[C@@H](CCC(N)=O)C(=O)N[C@@H](CCCNC(=N)N)C(=O)N[C@@H](Cc1ccccc1)C(=O)N[C@@H](CC(N)=O)C(=O)N[C@@H](COP(=O)(O)O)C(=O)N[C@@H](C)C(=O)N1CCC[C@H]1C(=O)N[C@@H](C)C(=O)N[C@@H](CCCNC(=N)N)C(N)=O [[Phe^176]pS(174–182)] (Ac-QRFN[pS]APAR-NH2) | 1.08 |
| CSCC[C@H](NC(=O)[C@H](CCCNC(=N)N)NC(=O)[C@H](C)NC(=O)[C@@H]1CCCN1C(=O)[C@H](C)NC(=O)[C@H](COP(=O)(O)O)NC(=O)[C@H](CC(N)=O)NC(=O)[C@H](CCC(N)=O)NC(=O)[C@H](CCCNC(=N)N)NC(=O)[C@H](CCC(N)=O)NC(=O)[C@@H](NC(C)=O)[C@@H](C)O)C(=O)N[C@@H](CC(C)C)C(=O)N[C@@H](CO)C(=O)N[C@@H](CO)C(N)=O [pS] (Ac-TQRQN[pS]APARMLSS-NH2) | 0.35 |
| CC(=O)N[C@@H](CCC(N)=O)C(=O)N[C@@H](CCCNC(=N)N)C(=O)N[C@@H](Cc1ccc(O)cc1)C(=O)N[C@@H](CC(N)=O)C(=O)N[C@@H](COP(=O)(O)O)C(=O)N[C@@H](C)C(=O)N1CCC[C@H]1C(=O)N[C@@H](C)C(=O)N[C@@H](CCCNC(=N)N)C(N)=O [[Tyr^176]pS(174–182)] (Ac-QRYN[pS]APAR-NH2) | 1.10 |
| CC(=O)N[C@@H](CCC(N)=O)C(=O)N[C@@H](CCCNC(=N)N)C(=O)N[C@@H](CCC(N)=O)C(=O)N[C@@H](CC(N)=O)C(=O)N[C@@H](COP(=O)(O)O)C(=O)N[C@@H](Cc1ccccc1)C(=O)N1CCC[C@H]1C(=O)N[C@@H](C)C(=O)N[C@@H](CCCNC(=N)N)C(N)=O [[Phe^179]pS(174–182)] (Ac-QRQN[pS]FPAR-NH2) | 0 |
| CC(=O)N[C@@H](CCC(N)=O)C(=O)N[C@@H](CCCNC(=N)N)C(=O)N[C@@H](CCC(N)=O)C(=O)N[C@@H](CCCCN)C(=O)N[C@@H](COP(=O)(O)O)C(=O)N[C@@H](C)C(=O)N1CCC[C@H]1C(=O)N[C@@H](C)C(=O)N[C@@H](CCCNC(=N)N)C(N)=O [[Lys^177]pS(174–182)] (Ac-QRQK[pS]APAR-NH2) | 0.23 |

Now for a further molecule.
The reported 14-3-3ε (Homo sapiens) ΔTm (melting temperature shift of 14-3-3ε) of CC(=O)N[C@@H](CCC(N)=O)C(=O)N[C@@H](CCCNC(=N)N)C(=O)N[C@@H](CCC(N)=O)C(=O)N[C@@H](CC(N)=O)C(=O)N[C@@H](COP(=O)(O)O)C(=O)N[C@@H](Cc1ccc(O)cc1)C(=O)N1CCC[C@H]1C(=O)N[C@@H](C)C(=O)N[C@@H](CCCNC(=N)N)C(N)=O [[Tyr^179]pS(174–182)] (Ac-QRQN[pS]YPAR-NH2) is 0

Ref: paper PMC11084659
